biological target: SARS-CoV-2 spike S1 subunit (SARS-CoV-2 (wild type), UniProt P0DTC2 16-685); settings: protein: commercial; tags: His
MEASURED PROPERTY: pKd
On this scale, pKd is minus log10 of a concentration expressed in M (mol/L).

>  <BINDER>
CTTCCACGGGTTTGGCGTCGGGCCTGGCGGGGGGATAGTGCGGTGGAAG (structured_DNA) [MSA5-T4]

>  <NUMBER>
8.20

$$$$
>  <BINDER>
TCCACGGCGTCGGGCCTGGCGGGGGGATAGTGCGGTGGA (structured_DNA) [MSA5-T7]

>  <NUMBER>
7.64

$$$$
>  <BINDER>
TCCACGGGTTTGGCGTCGGGCCTGGCGGGGGGATAGTGCGGTGGA (structured_DNA) [MSA5-T1]

>  <NUMBER>
8.08

$$$$
>  <BINDER>
CTCCACGGGTTTGGCGTCGGGCCTGGCGGGGGGATAGTGCGGTGGAG (structured_DNA) [MSA5-T3]

>  <NUMBER>
8.14

$$$$
>  <BINDER>
MSA3 (structured_DNA) DNA: TTACGTCAAGGTGTCACTCCTACAGCGTCTGGTTGGTTTGGTTGGATCTTCGATCGCTGTGAAGCATCTCTTTGGCGTG

>  <NUMBER>
8.72

$$$$

Value of measured pKd for the entry MSA6 (structured_DNA) DNA: TTACGTCAAGGTGTCACTCCTCGGGGGGGTTTGGCACTGGGCCTGGCAGTACCGGGTCGCGAAGCATCTCTTTGGCGTG : 7.79

Value of measured pKd for the entry TCCACGGGTTTGCTGGCGGGGGGATAGTGCGGTGGA (structured_DNA) [MSA5-T6] : 6.58

Value of measured pKd for the entry MSA2 (structured_DNA) DNA: TTACGTCAAGGTGTCACTCCTCAGTGGGAGGGGGTCCATGTCTTGTCGGGGTCGGGGGTGGAAGCATCTCTTTGGCGTG : 8.04

Value of measured pKd for the entry MSA7 (structured_DNA) DNA: TTACGTCAAGGTGTCACTCCTGGCTGTGGGGTTCGGGGTCACTATTTGTCGGGAGGGGAGGAAGCATCTCTTTGGCGTG : 7.12
